The following molecules are shown together with reported hGH fold inhibition relative to solvent control values.
- System: hGH promoter
- test-protocol: hGH promoter/luciferase reporter assay (high-throughput screen I), 532 cells
- Type: cell-based, rat
- assay-setup: transcriptional inhibitors, Table 2; 6 h incubation
Only the number, expressed in fold, is required.

Recorded hGH fold inhibition relative to solvent control, per entry:
>>> test_value("CC(=O)NCCCC[C@H](NC(C)=O)C(=O)O [Chemical 577]")
4.00
>>> test_value("Cc1cc(=O)oc2cc(OCC(=O)O)ccc12 [Chemical 1764]")
7.14
>>> test_value("N#Cc1cccc(Br)c1 [Chemical 1703]")
10.00

INPUT: Retrieve hGH fold inhibition relative to solvent control measured for Cc1n[nH]cc1Br [Chemical 2082] and print it.
OUTPUT: 0.65

INPUT: Retrieve hGH fold inhibition relative to solvent control measured for O=C(O[C@H](C(=O)O)[C@H](OC(=O)c1ccccc1)C(=O)O)c1ccccc1 [Chemical 578] and print it.
OUTPUT: 4.00

INPUT: Retrieve hGH fold inhibition relative to solvent control measured for NCCC(=O)N[C@@H](Cc1cnc[nH]1)C(=O)O [Chemical 1771] and print it.
OUTPUT: 10.00

---

- System: G-CSF promoter
- test-protocol: G-CSF promoter/luciferase reporter assay (high-throughput screen I), G21 cells
- assay-setup: transcriptional inhibitors, Table 2; 6 h incubation
The following molecules are shown together with reported GCSF fold inhibition relative to solvent control values.

INPUT: Retrieve GCSF fold inhibition relative to solvent control measured for O=C(O)c1ccc(Br)o1 and print it.
OUTPUT: 0.57 fold

INPUT: Retrieve GCSF fold inhibition relative to solvent control measured for Cc1n[nH]cc1Br and print it.
OUTPUT: 5.26 fold

INPUT: Retrieve GCSF fold inhibition relative to solvent control measured for Cc1cc(C)nc(NS(=O)(=O)c2ccc(N)cc2)n1 and print it.
OUTPUT: 0.60 fold

INPUT: Retrieve GCSF fold inhibition relative to solvent control measured for Cc1n[nH]c(C)c1Br and print it.
OUTPUT: 3.70 fold

INPUT: Retrieve GCSF fold inhibition relative to solvent control measured for COC(=O)CP(=O)(OCC(F)(F)F)OCC(F)(F)F and print it.
OUTPUT: 0.69 fold

INPUT: Retrieve GCSF fold inhibition relative to solvent control measured for O=C(c1ccccc1)c1ccncc1 and print it.
OUTPUT: 6.66 fold

INPUT: Retrieve GCSF fold inhibition relative to solvent control measured for O=C(O[C@H](C(=O)O)[C@H](OC(=O)c1ccccc1)C(=O)O)c1ccccc1 and print it.
OUTPUT: 0.65 fold

INPUT: Retrieve GCSF fold inhibition relative to solvent control measured for O=C(c1ccccc1)c1ccc(Br)cc1 and print it.
OUTPUT: 0.54 fold

INPUT: Retrieve GCSF fold inhibition relative to solvent control measured for CN(C)c1ccc(C(=N)c2ccc(N(C)C)cc2)cc1 and print it.
OUTPUT: 0.72 fold

---

- System: MMTV promoter
- test-protocol: MMTV promoter/luciferase reporter assay (high-throughput screen I, control for specificity), M10 cells
- Type: cell-based, mouse
- assay-setup: transcriptional inhibitors, Table 2; 6 h incubation
Each entry belongs to exactly one class, chosen by where its MMTV fold inhibition relative to solvent control falls: bucket A (below 0.7 fold), bucket B (0.7 fold to below 0.9 fold), bucket C (0.9 fold or more)

>>> cat("Nc1c(Br)cc([N+](=O)[O-])cc1[N+](=O)[O-]")
"bucket C"
>>> cat("Cc1ccc(P(CCP(c2ccc(C)cc2)c2ccc(C)cc2)c2ccc(C)cc2)cc1")
"bucket C"
>>> cat("O=C(c1ccccc1)c1ccncc1")
"bucket B"
>>> cat("O=S(=O)(O)c1ccc(-c2ccnc(-c3nnc(-c4ccc(S(=O)(=O)O)cc4)c(-c4ccc(S(=O)(=O)O)cc4)n3)c2)cc1")
"bucket C"
>>> cat("C(=Cc1ccccn1)c1ccccn1")
"bucket A"

INPUT: Class? Entry: O=C(O)c1cc(C(F)(F)F)ccc1C(F)(F)F
OUTPUT: bucket B

---

- System: MMTV promoter
- test-protocol: MMTV promoter/luciferase reporter assay (high-throughput screen I, control for specificity), M10 cells
- Format: cell-based, mouse
- assay-setup: transcriptional activators, Table 2; original high-throughput assay; 6 h incubation
Label criterion not met if MMTV fold induction relative to solvent control falls below 0.9 fold; label criterion met in every other case.

>>> cat("Nc1c(Cl)c(Cl)nc(C(=O)O)c1Cl [Chemical 1561]")
"criterion not met"

INPUT: # check: MMTV fold induction relative to solvent control of Nc1ccc2c(c1)C(=O)c1ccccc1-2 [Chemical 1318] is greater than or equal to 0.9 fold
OUTPUT: criterion met

INPUT: # check: MMTV fold induction relative to solvent control of CN(C)c1ccc(C(=C2C=CC(=[N+](C)C)C=C2)c2ccc(N(C)C)cc2)cc1 [Chemical #1780, Crystal Violet] is greater than or equal to 0.9 fold
OUTPUT: criterion met

INPUT: # check: MMTV fold induction relative to solvent control of Nc1nc(-c2ccccc2)cs1 [Chemical 1499] is greater than or equal to 0.9 fold
OUTPUT: criterion not met

INPUT: # check: MMTV fold induction relative to solvent control of Nc1ccccc1SSc1ccccc1N [Chemical 1482] is greater than or equal to 0.9 fold
OUTPUT: criterion met

INPUT: # check: MMTV fold induction relative to solvent control of ClCCCCCBr [Chemical 2097] is greater than or equal to 0.9 fold
OUTPUT: criterion met

INPUT: # check: MMTV fold induction relative to solvent control of Nc1ccc(SSc2ccc(N)cc2)cc1 [Chemical 1483] is greater than or equal to 0.9 fold
OUTPUT: criterion met

---

- Test system: G-CSF promoter
- test-protocol: G-CSF promoter/luciferase reporter assay (high-throughput screen I), G21 cells
- assay-setup: transcriptional inhibitors, Table 2; 6 h incubation
Label false (0) if GCSF fold inhibition relative to solvent control falls below 0.7 fold; label true (1) in every other case.

Check out these entries, answers already filled in.
>>> cat("NC(=O)c1ccccc1O [Chemical 798]")
"true (1)"
>>> cat("Nc1nc2c(nc(Br)n2[C@@H]2O[C@H](CO)[C@@H](O)[C@H]2O)c(=O)[nH]1 [Chemical 2036]")
"false (0)"
>>> cat("Nc1c(Br)cc([N+](=O)[O-])cc1[N+](=O)[O-] [Chemical 2010]")
"true (1)"

INPUT: # check: GCSF fold inhibition relative to solvent control of Cc1c(C(=O)O)c(O)cc2c1C(=O)c1c(O)c([C@@H]3O[C@H](CO)[C@@H](O)[C@H](O)[C@H]3O)c(O)c(O)c1C2=O [Chemical 240] is greater than or equal to 0.7 fold
OUTPUT: false (0)

INPUT: # check: GCSF fold inhibition relative to solvent control of CC1(C)[C@H]2CC[C@]1(C)C(=O)C2 [Chemical 1720] is greater than or equal to 0.7 fold
OUTPUT: false (0)

---

- System: hGH promoter
- test-protocol: hGH promoter/luciferase reporter assay (high-throughput screen I), 532 cells
- Assay type: cell-based, rat
- assay-setup: transcriptional activators, Table 2; 6 h incubation
Define the label as t when hGH fold induction relative to solvent control is strictly less than 0.6 fold and as f in all remaining cases.

Check out these entries, answers already filled in.
>>> cat("Nc1ccc2c(c1)Cc1ccccc1-2")
"f"
>>> cat("Brc1cccc(-c2ccccc2)c1")
"t"
>>> cat("CCN(CC)CCCC(C)Nc1c2ccc(Cl)cc2nc2ccc(OC)cc12 (centres unmarked)")
"t"
>>> cat("OCC1CC2C3CC(CO)C(C3)C2C1 (centres unmarked)")
"f"
>>> cat("Clc1cc(Cl)cc(Br)c1")
"t"

INPUT: hGH fold induction relative to solvent control strictly < 0.6 fold for this compound? Cc1ccc(C(=O)c2ccccc2N)cc1
OUTPUT: t

INPUT: hGH fold induction relative to solvent control strictly < 0.6 fold for this compound? O=C1CCCCC1Cl (centres unmarked)
OUTPUT: f

INPUT: hGH fold induction relative to solvent control strictly < 0.6 fold for this compound? O=c1ccc2[n+]([O-])c3ccc(O)cc3oc-2c1
OUTPUT: t

INPUT: hGH fold induction relative to solvent control strictly < 0.6 fold for this compound? O=NN(O)c1ccccc1
OUTPUT: t

INPUT: hGH fold induction relative to solvent control strictly < 0.6 fold for this compound? Nc1nc(N)nc(N)n1
OUTPUT: f

INPUT: hGH fold induction relative to solvent control strictly < 0.6 fold for this compound? CC(=O)c1c(C)cc(NC(C)(C)C)nc1NC(C)(C)C
OUTPUT: f

INPUT: hGH fold induction relative to solvent control strictly < 0.6 fold for this compound? Nc1ccc(S(=O)(=O)O)c2cccc(O)c12
OUTPUT: f

INPUT: hGH fold induction relative to solvent control strictly < 0.6 fold for this compound? c1ccc(-c2cccc(-c3ccccn3)n2)nc1
OUTPUT: t

INPUT: hGH fold induction relative to solvent control strictly < 0.6 fold for this compound? O=C(O)c1ccc2c3c(ncnc13)-c1ccccc1C2=O
OUTPUT: t

INPUT: hGH fold induction relative to solvent control strictly < 0.6 fold for this compound? Nc1nc(-c2ccccc2)cs1
OUTPUT: f

INPUT: hGH fold induction relative to solvent control strictly < 0.6 fold for this compound? Cc1c(C2(c3cc(Br)c(O)c(Br)c3C)OS(=O)(=O)c3ccccc32)cc(Br)c(O)c1Br
OUTPUT: f

INPUT: hGH fold induction relative to solvent control strictly < 0.6 fold for this compound? CCOc1ccc2nc3cc(N)ccc3c(N)c2c1
OUTPUT: f

The origin of these recorded values is patent US5846720A.
